The measurements presented in this section are drawn from ChEMBL document CHEMBL1137085.

- subject-of-test: Melanocortin receptor 4 (Homo sapiens)
- Sequence (P32245 whole entry): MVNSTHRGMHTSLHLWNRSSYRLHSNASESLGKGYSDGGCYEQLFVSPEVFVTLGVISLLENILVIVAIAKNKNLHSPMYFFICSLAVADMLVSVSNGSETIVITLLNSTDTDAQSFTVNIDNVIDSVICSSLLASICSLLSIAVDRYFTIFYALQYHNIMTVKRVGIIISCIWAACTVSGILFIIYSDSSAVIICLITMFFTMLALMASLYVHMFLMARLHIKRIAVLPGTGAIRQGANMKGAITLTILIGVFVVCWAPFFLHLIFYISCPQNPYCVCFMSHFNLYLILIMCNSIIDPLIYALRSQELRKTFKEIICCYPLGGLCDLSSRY
- assay-comment: Inhibition against human melanocortin-4 (MC4) receptor
readout-label: pIC50
Give bare numbers, as −log10 of the molar value.

# compound, subject-of-test, measured-number
data = [
    ("Cc1ccc2[nH]c(-c3ccc(Br)cc3)c(CCCCCNC3CCCCC3)c2c1", "Melanocortin receptor 4 (Homo sapiens)", 6.21),
]

**Query** Reported pIC50 for CS(=O)(=O)N1CC2(CCN(C(=O)[C@@H](Cc3ccc(Cl)cc3)NC(=O)C3Cc4ccccc4CN3)CC2)c2ccccc21 (some centres not stated) : what is it?
**Result** 7.00

---

Give pIC50 for every item shown.
- subject-of-test: Growth hormone secretagogue receptor type 1 (Homo sapiens, UniProt Q92847)
- Sequence (Q92847 whole entry): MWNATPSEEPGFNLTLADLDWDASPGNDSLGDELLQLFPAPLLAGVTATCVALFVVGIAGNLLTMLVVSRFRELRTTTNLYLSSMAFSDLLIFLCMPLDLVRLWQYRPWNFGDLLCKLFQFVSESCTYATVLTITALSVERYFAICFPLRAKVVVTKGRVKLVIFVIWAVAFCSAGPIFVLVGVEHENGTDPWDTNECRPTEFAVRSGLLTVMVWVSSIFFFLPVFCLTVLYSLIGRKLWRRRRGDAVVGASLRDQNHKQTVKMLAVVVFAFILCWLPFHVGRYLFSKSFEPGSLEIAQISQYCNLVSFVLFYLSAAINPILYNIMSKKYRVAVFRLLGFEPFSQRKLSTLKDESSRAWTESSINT
- assay-comment: Inhibition against human growth hormone secretagogue (GHS) receptor
One number for each entry, as −log10 of the molar value.

# compound, pIC50
measured = [
    ("CS(=O)(=O)N1CC2(CCN(C(=O)[C@@H](Cc3ccc(Cl)cc3)NC(=O)C3Cc4ccccc4CN3)CC2)c2ccccc21 (some centres not stated)", 6.72),
]

**Query** Reported pIC50 for CC(C)(N)CC(=O)N[C@@H]1CCc2ccccc2N(Cc2ccc(-c3ccccc3-c3nnn[nH]3)cc2)C1=O : what is it?
**Result** 5.55
